Ref: patent US4091206A

The following compounds are shown together with reported LD50 values.
test: oral toxicity on mice; settings: mouse, in vivo, po
readout-type: LD50 (mg/kg)

[[record]]
compound = "O=C(Cc1cccc2ccccc12)NN=Cc1c[n+]([O-])c2ccccc2[n+]1[O-] [1-napthylmethyl]"
observed_result = 13000

[[record]]
compound = "CCCCCCC(=O)NN=Cc1c[n+]([O-])c2ccccc2[n+]1[O-] [hexyl]"
observed_result = 4000

[[record]]
compound = "O=C(NN=Cc1c[n+]([O-])c2ccccc2[n+]1[O-])c1ccc([N+](=O)[O-])o1 [Example 5-nitrofuryl]"
observed_result = 14000

